Origin of values: PubChem BioAssay (EPA / NIEHS)

# Read-out: Cytochrome P450 (CYP2B6), CYP2B6 (gene 1555)
# Method Summary: LTEA_HepaRG_CYP2B6: Life Technologies and Expression Analysis (LTEA) Assay for Cytochrome P450 (CYP2B6) using HepaRG (AID 2283481)
# Condition Notes: mRNA level, 48 h; actives raise or lower the signal
Active and inactive are the calls of the source. Rule for the calls: active = hit-call score of the fitted dose curve at least 0.9, where 1 is the maximum; inactive = score below 0.9.
Classes used: active, inactive

CC1=C(/C=C/C(C)=C/C=C/C(C)=C/C(=O)O)C(C)(C)CCC1 | active
O=C(O)Cc1cc(I)c(Oc2cc(I)c(O)c(I)c2)c(I)c1 | active
CCCCC(CC)COC(=O)CCCCC(=O)OCc1ccccc1 (configuration not stated) | inactive
c1ccc2cc3c(ccc4ccccc43)cc2c1 | active
CCCCCCCC(=O)O | inactive
CCCCCCCCCCCCCCCS(=O)(=O)Oc1ccccc1 | active
c1ccc2c(c1)Cc1ccccc1-2 | active
NC(=O)N1C(=O)C(C(=O)c2cc(Cl)cs2)c2cc(F)c(Cl)cc21 (configuration not stated) | active
COCC(C)OCC(C)O (configuration not stated) | inactive
CCCCOCCO | inactive
OC1CCC(C2CCCCC2)CC1 (configuration not stated) | inactive
CC(C)CCCCCCOC(=O)CCCCC(=O)OCCCCCCC(C)C | active
CCCOc1sc(C(=O)N2CCC(c3cc(CN)ccc3F)CC2)c(C)c1Br | active
COc1ccc([N+](=O)[O-])cc1N | active
CC(=O)CC(C)(C)O | inactive
CC[C@H](C)[C@@H](C(=O)O)n1sc2ccccc2c1=O | active
CCC(=C(c1ccc(O)cc1)c1ccc(OCCN(C)C)cc1)c1ccccc1 | active
CCCCC(CC)COC(=O)CCCCC(=O)OCC(CC)CCCC (configuration not stated) | inactive
CCC(C)(C)C1CCC(O)CC1 (configuration not stated) | active
Cc1oc(-c2ccccc2)nc1CCOc1ccc(C[C@H](Nc2ccccc2C(=O)c2ccccc2)C(=O)O)cc1 | active
CC#C[C@]1(O)CC[C@H]2[C@@H]3CCC4=CC(=O)CCC4=C3[C@@H](c3ccc(N(C)C)cc3)C[C@@]21C | active
CC(C)(C)c1cccc(C(C)(C)C)c1O | inactive
ClC1=C(Cl)C(Cl)(Cl)C(Cl)=C1Cl | inactive
COC(=O)CCCCC(=O)OC | inactive
O=C(O)c1ccccc1C(c1ccc(O)cc1)c1ccc(O)cc1 | active
Nc1cccc2c(N)cccc12 | active
c1ccc2c(c1)ccc1ccccc12 | active

----------
# Target System: Ratio of Nucleoli Translocation and Cytoplasm, AR (gene 367)
# Method Summary: UPITT_HCI_U2OS_AR_TIF2_Nucleoli_Cytoplasm_Ratio_Antagonist: University of Pittsburgh U2OS Androgen Receptor-Transcriptional Intermediary Factor 2 (AR-TIF2) Antagonism High Content Imaging Assay for Ratio of Nucleoli Translocation and Cytoplasm (AID 2283999);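 note: antagonists lower the DHT-driven ratio of nucleolar to cytoplasmic red signal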
Records with an inconclusive call do not appear. Activity calls are given as the source filed them. Rule for the calls: active = hit-call score of the fitted dose curve at least 0.9, where 1 is the maximum; inconclusive = response in the unintended direction; inactive = score below 0.9.
Classes used: active, inactive

c1ccc2c(c1)ccc1ccccc12 | inactive
Nc1cccc2c(N)cccc12 | inactive
Oc1cc2ccccc2c2ccccc12 | active
COCC(C)OCC(C)O (stereo unspecified) | inactive
NC(=O)N1C(=O)C(C(=O)c2cc(Cl)cs2)c2cc(F)c(Cl)cc21 (stereo unspecified) | inactive
O=C(/C=C/c1ccc(O)cc1)CC(=O)/C=C/c1ccc(O)cc1 | inactive
CCCCCCCCCCCCc1ccccc1S(=O)(=O)O | inactive
OCCC(F)(F)C(F)(F)C(F)(F)C(F)(F)C(F)(F)C(F)(F)C(F)(F)C(F)(F)F | inactive
CC[C@H](c1ccc(O)cc1)[C@@H](CC)c1ccc(O)cc1 | inactive
CCCOc1sc(C(=O)N2CCC(c3cc(CN)ccc3F)CC2)c(C)c1Br | inactive
CCC(=C(c1ccc(O)cc1)c1ccc(OCCN(C)C)cc1)c1ccccc1 | inactive
